Provenance of the data: patent US20220002432A1

# target.or.test.system: T1, cynomolgus CD38 ECD (cynomolgus, UniProt Q5VAN0 44-301, biotinylated on the AviTag during preparation)
# T1 construct: also called Cyno-CD38; Avi-Cyno CD38 ECD
# procedure.text: SPR (Biacore 8K), antibody captured, antigen injected;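 also: antibodies held on a CM5 chip through anti-human IgG Fc, antigen in 3-fold serial dilutions, 1 min association then 10 min dissociation at 25 °C, 1:1 Langmuir global fit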
Here, each record is paired with measured Kd data.

binder: 20B5 (antibody, human IgG1, kappa, V domains shown, Rabbit-human chimeric anti-CD38: rabbit VH and VL on human IgG1 and kappa constant regions) VH: QSLEESGGDLVKPGASLTLTCTASGFSFSSRYWICWVRQAPGKGLEWIACIVAGTTNTYYASWAKGRFTISKTSSTTVTLQMTSLTAADTATYFCAGDPRTGSNVGYFNLWGPGTLVTVSS VL: AQVLTQTPSPVSAAVGGTVTINCQASQSVYNNNYLAWFQQKPGQPPKLLIYSASTLASGVPSRFKGSGSGTQFTLTISEVQSDDAATYYCQAYYSGGIYAFGGGTEVVVKR
unit.label: nM
Kd: 54.8
--
binder: 25F12 (antibody, human IgG1, kappa, V domains shown, Rabbit-human chimeric anti-CD38: rabbit VH and VL on human IgG1 and kappa constant regions) VH: RSLEESGGRLVTPGTPLTLTCTTSGFSLSSYDMSWVRQAPGKGLEWIGYITYGGNIYYATWAKGRFTTSKTSTTVDLKITSPTTEDTATYFCARTLYTGGRYYFSLWGPGTLVTVSS VL: AQVLTQTPSSVSAVVGGTVTINCQSSQSIANSNEVAWYQQKLGQPPKLLIYDASTLASGVPSRFSGSGSGTQFTLIISGVQSDDAATYYCQGTVYDNVWYAAFGGGTEVVVKR
unit.label: nM
Kd: 0.18
--
binder: 27F6 (antibody, human IgG1, kappa, V domains shown, Rabbit-human chimeric anti-CD38: rabbit VH and VL on human IgG1 and kappa constant regions) VH: QSLEESGGGLVKPGASLTLTCKASGFSFSSGCDMCWVRQAPGKGLEWISCIYTGSGSTYYANWAKGRFTISRTSSTTVTLQMTSLTAADTATYFCAGDSDYLGLWGPGTLVTVSS VL: DIVMTQTPSSVEAAVGGTVTIKCQASQNIGNYLAWYQQKPGQPPKVLIYRASTLASGVPSRFKGSGSGTHFTLTISDLESADAATYYCQSYYYTTDDNYRSWAFGGGTEVVVKR
unit.label: nM
Kd: 0.28
